Value source: the OPERA property sets (Mansouri et al. 2018)

Consider the cut-off 2. If the recorded logP is strictly smaller, the label is MET; if not, the label is NOT MET.

Before answering, review these 10 worked examples.
compound: CCOC(=O)N(C)SN(C)C(=O)Oc1cccc2c1OC(C)(C)C2
class: NOT MET
--
compound: Cc1cccc2nccc(=O)n12
class: MET
--
compound: CC1CN(N=O)CCN1N=O (stereo not drawn)
class: MET
--
compound: Nc1ccc(OC(=O)CNC(=O)c2ccccc2)cc1
class: MET
--
compound: CC(=O)Nc1cccc(OC(C)=O)c1
class: MET
--
compound: CN(C)C(=O)Oc1ccccc1Br
class: NOT MET
--
compound: O=[N+]([O-])c1nccn1CCS(=O)(=O)c1ccccc1
class: MET
--
compound: ClC1C(Cl)C(Cl)C(Br)C(Br)C1Cl (stereo not drawn)
class: NOT MET
--
compound: CN(C)N=[N+]([O-])c1ccccc1
class: MET
--
compound: Nc1cccc(O[Si]23OCCN(CCO2)CCO3)c1
class: MET

Find out if reported logP for OCC1OC(Oc2ccc(I)c(OC3OC(CO)C(O)C(O)C3O)c2I)C(O)C(O)C1O (stereo not drawn) is less than 2 MET

# check: logP < 2 for CSC(C)=NOC(=O)N(C)SN(C)C(=O)c1ccc(Cl)cc1 NOT MET
